pIC50 values by entry
System: L. donovani promastigotes
Experiment Notes: L. donovani promastigote viability, 72 hour Alamar blue assay
Format: cell-based, Leishmania donovani
Study Conditions: read-out: L. donovani Promastigotes IC50; 72 hour Alamar blue, 26°C
# pIC50 is unitless: minus log10 of the molar concentration; print number only

- O=Cc1cc2c(cc1O)[nH]c1ccc(OC(F)(F)F)cc12 [Compound 6d]: 4.90
- COc1ccc2[nH]c3ccc(C=O)cc3c2c1 [Compound 5g]: 3.92

Request: Specify the recorded pIC50 for O=Cc1cc2c(cc1O)[nH]c1ccccc12 [Compound 6b] , system: L. donovani promastigotes.
Response: 3.78

Request: Fill in pIC50 for CCn1c2ccccc2c2cc(C=O)ccc21 [Compound 14] tested with L. donovani promastigotes.
Response: 3.76

Request: GET pIC50 where system = L. donovani promastigotes and item = Oc1ccc2c(c1)[nH]c1ccccc12 [Compound 15]
Response: 3.81

Request: State pIC50 (L. donovani promastigotes) of COc1ccc2[nH]c3cc(O)c(C)cc3c2c1 [Compound 13] .
Response: 4.11

Request: Retrieve pIC50 on L. donovani promastigotes; query O=Cc1cc2c(cc1O)[nH]c1ccc(C(F)(F)F)cc12 [Compound 6c]
Response: 4.58

Request: Report value only: pIC50, L. donovani promastigotes, Cn1c2ccccc2c2ccccc21 [Compound 16]
Response: 3.69

Request: State, for L. donovani promastigotes, measured pIC50 of the molecule listed here: N=C(N)c1ccc(OCCCCCOc2ccc(C(=N)N)cc2)cc1 [Pentamidine, reference compound]
Response: 5.46
